- Test system: Klebsiella pneumoniae BC 6
outcome.measure: MIC (µg/mL)
Report the figure in µg/mL without appending any unit label.

Recall the reported MIC of CO[C@@]1(NC(=O)C(NC(=O)Nc2cnc(NCc3ccc(S(N)(=O)=O)cc3)nc2O)c2ccc(O)cc2)C(=O)N2[C@@H](C(=O)O)C(C)(C)S[C@@H]21 (stereo partly shown) on Klebsiella pneumoniae BC 6 and write it down.
1

Please respond with reported MIC (system Klebsiella pneumoniae BC 6) for CO[C@@]1(NC(=O)C(NC(=O)Nc2cnc(Nc3ccc(S(N)(=O)=O)cc3)nc2O)c2ccc(O)cc2)C(=O)N2[C@@H](C(=O)O)C(C)(C)S[C@@H]21 (stereo partly shown) .
1

Give MIC for this entry on Klebsiella pneumoniae BC 6: CO[C@@]1(NC(=O)C(C(=O)O)c2ccsc2)C(=O)N2[C@@H](C(=O)O)C(C)(C)S[C@@H]21 (stereo partly shown) [Compound E, Temocillin, reference compound]
2

Please report the measured MIC for CO[C@@]1(NC(=O)C(NC(=O)Nc2cnc(NCc3ccc(S(N)(=O)=O)s3)nc2O)c2ccc(O)cc2)C(=O)N2[C@@H](C(=O)O)C(C)(C)S[C@@H]21 (stereo partly shown) tested on Klebsiella pneumoniae BC 6.
1
